src = patent US20030212100A1

measuredTarget: human PPARγ receptor (Homo sapiens)
Construct: corresponding to Ser204-Tyr506 for human PPARγ1 receptor and human PPARγ2; expressed in transfected cells; host or cells: CV-1 cells (pSG5-based expression vector)
Sequence (P37231 204-505 limits assumed): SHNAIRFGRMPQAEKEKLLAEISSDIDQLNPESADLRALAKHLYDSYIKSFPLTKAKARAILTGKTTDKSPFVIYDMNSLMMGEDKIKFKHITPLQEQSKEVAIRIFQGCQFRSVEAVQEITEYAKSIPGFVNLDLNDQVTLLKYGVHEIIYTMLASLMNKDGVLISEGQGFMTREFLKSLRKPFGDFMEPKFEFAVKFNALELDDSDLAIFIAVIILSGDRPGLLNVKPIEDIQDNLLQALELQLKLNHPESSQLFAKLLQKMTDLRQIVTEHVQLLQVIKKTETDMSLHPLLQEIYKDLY
procedureText: Luciferase reporter assay of PPARγ agonist activity (Gal4-PPARγ chimera receptor in CV-1 cells)
Assay type: cell-based
runConditions: CV-1, 1 μM compound, luciferase activity with 1 μM Pioglitazone taken as 100, read-out: PPAR γ agonist activity, relative activity
Structures can show the parent of a compound that is named as a salt.
Task for the reader: assign each of the following compounds its reported Emax at 1 µM.
Write it as a number; the unit % goes unstated.

Exam item: Fill in the blank: the reported Emax at 1 µM of COc1ccc2ncc(COc3ccc(CC(Sc4ccccc4)C(=O)O)cc3)c(OC(C)C)c2c1 (stereo not drawn) is ____.
Marked response: 83.5

Exam item: Fill in the blank: the reported Emax at 1 µM of CCOC(=O)C(Cc1ccc(OCc2cnc3ccc(OC)cc3c2OC(C)C)cc1)OCC (stereo not drawn) is ____.
Marked response: 127

Exam item: Fill in the blank: the reported Emax at 1 µM of CNC(=O)C(Cc1ccc(OCc2cnc3ccc(OC)cc3c2OC(C)C)cc1)C(C)=O (stereo not drawn) is ____.
Marked response: 1.2

Exam item: Fill in the blank: the reported Emax at 1 µM of CCOC(Cc1ccc(OCc2cnc3c(F)cccc3c2OC(C)C)cc1)C(=O)O (stereo not drawn) is ____.
Marked response: 133

Exam item: Fill in the blank: the reported Emax at 1 µM of CCOC(Cc1ccc(OCc2cc(OC)c3ccccc3n2)cc1)C(=O)O (stereo not drawn) is ____.
Marked response: 115

Exam item: Fill in the blank: the reported Emax at 1 µM of CNC(=O)/C(=C/c1ccc(OCc2cnc3ccc(OC)cc3c2OC(C)C)cc1)C(C)=O [Example 25 (144), hydrochloride] is ____.
Marked response: 1.9

Exam item: Fill in the blank: the reported Emax at 1 µM of CCOC(=O)C(Cc1cccc(OCc2cnc3ccc(OC)cc3c2OC(C)C)c1)C(=O)OCC [Example 27 (128), hydrochloride] is ____.
Marked response: 2.1

Exam item: Fill in the blank: the reported Emax at 1 µM of `COc1ccc2ncc(COc3ccc(C=C(C(C)=O)C(C)=O)cc3)c(OC(C)C)c2c1` is ____.
Marked response: 3.7

Exam item: Fill in the blank: the reported Emax at 1 µM of CCOC(Cc1ccc(OCc2cnc3cc(C)cc(C)c3c2OC(C)C)cc1)C(=O)O (stereo not drawn) is ____.
Marked response: 0.4

---

Task for the reader: assign each of the following compounds its reported Emax at 1 µM.
measuredTarget: human PPARα receptor (Homo sapiens)
Construct: expressed in transfected cells; host or cells: CV-1 cells (pSG5-based expression vector)
Sequence (Q07869 167-468): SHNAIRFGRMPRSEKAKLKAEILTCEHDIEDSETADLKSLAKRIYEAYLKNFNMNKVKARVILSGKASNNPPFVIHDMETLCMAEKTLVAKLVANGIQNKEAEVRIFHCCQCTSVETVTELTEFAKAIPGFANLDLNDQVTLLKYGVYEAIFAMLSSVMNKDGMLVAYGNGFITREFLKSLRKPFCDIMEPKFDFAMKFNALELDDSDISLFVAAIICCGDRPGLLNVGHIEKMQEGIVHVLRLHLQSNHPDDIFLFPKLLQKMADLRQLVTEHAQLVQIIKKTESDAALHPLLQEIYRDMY
procedureText: Luciferase reporter assay of PPARα agonist activity (Gal4-PPARα chimera receptor in CV-1 cells)
Format: cell-based
runConditions: CV-1, 1 μM compound, luciferase activity with 10 μM Wy-14,643 taken as 100, read-out: PPARα agonist activity, relative activity
Write it as a number; the unit % goes unstated.

Exam item: Fill in the blank: the reported Emax at 1 µM of CCCCCCCCOc1c(COc2ccc(CC(OCC)C(=O)O)cc2)cnc2ccc(OC)cc12 (stereo not shown) is ____.
Marked response: 4.5

Exam item: Fill in the blank: the reported Emax at 1 µM of `COc1ccc2ncc(COc3ccc(/C=C(\Sc4ccccc4)C(=O)O)cc3)c(OC(C)C)c2c1` is ____.
Marked response: 0.3

Exam item: Fill in the blank: the reported Emax at 1 µM of COc1ccc2ncc(COc3ccc(CC(Sc4ccccc4)C(=O)O)cc3)c(OC(C)C)c2c1 (stereo not shown) is ____.
Marked response: 0.3

Exam item: Fill in the blank: the reported Emax at 1 µM of CCOC(Cc1ccc(OCc2cnc3ccc(CC)cc3c2OC(C)C)cc1)C(=O)O (stereo not shown) is ____.
Marked response: 47.1

Exam item: Fill in the blank: the reported Emax at 1 µM of CCOC(Cc1ccc(OCc2cnc3cc(OC)c(OC)cc3c2OC(C)C)cc1)C(=O)O (stereo not shown) is ____.
Marked response: 0.3

Exam item: Fill in the blank: the reported Emax at 1 µM of CCOC(Cc1ccc(OCc2cnc3c(F)cccc3c2OC(C)C)cc1)C(=O)O (stereo not shown) is ____.
Marked response: 0.3

Exam item: Fill in the blank: the reported Emax at 1 µM of CCOC(Cc1ccc(OCc2cnc3ccc(OC)cc3c2OC(C)C)cc1)C(=O)O (stereo not shown) is ____.
Marked response: 10.4

Exam item: Fill in the blank: the reported Emax at 1 µM of CCOC(=O)C(Cc1ccc(OCc2cnc3ccc(OC)cc3c2OC(C)C)cc1)OCC (stereo not shown) is ____.
Marked response: 0.9

Exam item: Fill in the blank: the reported Emax at 1 µM of CCOC(Cc1ccc(OCc2cnc3cc(C)cc(C)c3c2OC(C)C)cc1)C(=O)O (stereo not shown) is ____.
Marked response: 0.5

Exam item: Fill in the blank: the reported Emax at 1 µM of CCOC(Cc1ccc(OCc2cnc3c(Cl)cccc3c2OC(C)C)cc1)C(=O)O (stereo not shown) is ____.
Marked response: 0.9

Exam item: Fill in the blank: the reported Emax at 1 µM of CCOC(Cc1ccc(OCc2cnc3ccc(OC)cc3c2OC(C)C)cc1)C(N)=O (stereo not shown) is ____.
Marked response: 0.9

Exam item: Fill in the blank: the reported Emax at 1 µM of CCOC(Cc1ccc(OCc2cc(OC)c3ccccc3n2)cc1)C(=O)O (stereo not shown) is ____.
Marked response: 64.3

Exam item: Fill in the blank: the reported Emax at 1 µM of CCOC(Cc1ccc(OCc2cnc3c(C(F)(F)F)cccc3c2OC(C)C)cc1)C(=O)O (stereo not shown) is ____.
Marked response: 0.3

Exam item: Fill in the blank: the reported Emax at 1 µM of CCOC(Cc1ccc(OCc2cccc3cccnc23)cc1)C(=O)O (stereo not shown) is ____.
Marked response: 0.4

Exam item: Fill in the blank: the reported Emax at 1 µM of CCCCNC(=O)C(Cc1ccc(OCc2cnc3ccc(OC)cc3c2OC(C)C)cc1)OCC (stereo not shown) is ____.
Marked response: 0.3

Exam item: Fill in the blank: the reported Emax at 1 µM of CCOC(Cc1ccc(OCc2cnc3cc(C(F)(F)F)ccc3c2OC(C)C)cc1)C(=O)O (stereo not shown) is ____.
Marked response: 0.3

---

measuredTarget: human PPARα receptor (Homo sapiens)
Construct: expressed in transfected cells; host or cells: CV-1 cells (pSG5-based expression vector)
procedureText: Luciferase reporter assay of PPARα agonist activity (Gal4-PPARα chimera receptor in CV-1 cells)
Assay type: cell-based
runConditions: CV-1, 0.1 μM compound, luciferase activity with 10 μM Wy-14,643 taken as 100, read-out: PPARα agonist activity, relative activity
Method: Measurement of PPARα Agonist Activity and PPARγ Agonist Activity 1. Materials for Assay of Luciferase Using Human PPARα and PPARγ Receptors The entire procedure was carried out according to the fundamental methods of genetic engineering and the ordinary method in the yeast one-hybrid or two-hybrid system was applied. […]
measureName: Emax at 0.1 µM (%)
Write it as a number; the unit % goes unstated.

Exam item: Fill in the blank: the reported Emax at 0.1 µM of CCOC(Cc1ccc(OCc2cnc3c(C(F)(F)F)cccc3c2OC(C)C)cc1)C(=O)O (centres unmarked) is ____.
Marked response: 0.3

Exam item: Fill in the blank: the reported Emax at 0.1 µM of CCCCCCCCOc1c(COc2ccc(CC(OCC)C(=O)O)cc2)cnc2ccc(OC)cc12 (centres unmarked) is ____.
Marked response: 0.4

Exam item: Fill in the blank: the reported Emax at 0.1 µM of CCOC(Cc1ccc(OCc2cnc3cc(C(F)(F)F)ccc3c2OC(C)C)cc1)C(=O)O (centres unmarked) is ____.
Marked response: 0.2

Exam item: Fill in the blank: the reported Emax at 0.1 µM of CCOC(Cc1ccc(OCc2cnc3ccc(CC)cc3c2OC(C)C)cc1)C(=O)O (centres unmarked) is ____.
Marked response: 5.7

Exam item: Fill in the blank: the reported Emax at 0.1 µM of CCOC(Cc1ccc(OCc2cnc3ccc(OC)cc3c2OC(C)C)cc1)C(N)=O (centres unmarked) is ____.
Marked response: 0.4

Exam item: Fill in the blank: the reported Emax at 0.1 µM of CCOC(Cc1ccc(OCc2cnc3c(F)cccc3c2OC(C)C)cc1)C(=O)O (centres unmarked) is ____.
Marked response: 0.3

Exam item: Fill in the blank: the reported Emax at 0.1 µM of CCOC(Cc1ccc(OCc2cnc3cc(C)cc(C)c3c2OC(C)C)cc1)C(=O)O (centres unmarked) is ____.
Marked response: 0.3

Exam item: Fill in the blank: the reported Emax at 0.1 µM of COc1ccc2ncc(COc3ccc(CC(Sc4ccccc4)C(=O)O)cc3)c(OC(C)C)c2c1 (centres unmarked) is ____.
Marked response: 0.3
